test protocol: Phase I clinical trial, pharmacokinetics of loxoprofen sodium eye drops
assay context: human, in vivo, topical or ocular, 0.1 mg, multiple administration (four times a day)
measurement label: Cmax
Answer format: value, then unit.

Item CC(C(=O)O)c1ccc(CC2CCCC2=O)cc1 (stereo not shown) [loxoprofen] has what recorded Cmax?
4.22 ng/mL

* * *

test protocol: Phase I clinical trial, pharmacokinetics of loxoprofen sodium eye drops
assay context: human, in vivo, topical or ocular, 0.05 mg, multiple administration (four times a day), 0.05 mg, read-out: Average AUC0-t
measurement label: AUC(0-t)
Answer format: value, then unit.

Item CC(C(=O)O)c1ccc(CC2CCCC2=O)cc1 (stereo not shown) has what recorded AUC(0-t)?
0.47 ng·h/mL
